# System: RPMI-8226 leukemia
# runDescription: NCI-60 one-dose screen, 48 h
# conditionsUsed: 10 µM unless noted
The panel holds about 83,000 compounds, 20% with a hit somewhere; the sample as a whole holds those more often. Calls of active or inactive are those of the source. Rule for the calls: active = growth percent below 10; inactive = the rest.
Possible outcomes: Yes = active, No = inactive

| molecule | classAssignment |
| --- | --- |
| CCOC(=O)c1n[nH]n2c1nc(=O)c1cnn(C)c12 | No |
| C=CCn1c(SCC(=O)Nc2ccc(C(=O)/C=C/c3ccc(OC)cc3)cc2)nnc1-c1ccccc1 | Yes |
| CCOC(=O)C1=C(C)N=C2SC=C(c3ccccc3)N2[C@H]1c1cn[nH]c1-c1ccc(Cl)cc1 | Yes |
| CC(C)=CC(=O)N[C@@H]1CC2CCC3C(CC[C@@]4(C)C3CC[C@@H]4C(C)N(C)C)[C@@]2(C)C[C@@H]1O (stereo partly drawn) | Yes |
| COc1ccc(C(c2cc(OC)c(OC)c(OC)c2)N2CCN(Cc3ccccc3)CC2)cc1 (stereo not drawn) | No |
| CCCCCCCCCCCCCCCCCCOc1ccccc1CC(=O)OCC[N+]1(C)CCOCC1 | No |
| C=C(CN1CC=CCC1)[C@@H]1CC[C@]2(CO)CC[C@]3(C)[C@H](CC[C@@H]4[C@@]5(C)CC[C@H](O)C(C)(C)[C@@H]5CC[C@]43C)[C@@H]12 | No |
| N#C/C(=C\c1ccc(Cl)cc1Cl)C(=O)Nc1ncc(Cc2ccc(Cl)c(Cl)c2)s1 | No |

###

# System: SR leukemia
# runDescription: NCI-60 one-dose screen, 48 h
# conditionsUsed: 10 µM unless noted
The panel holds about 83,000 compounds, 20% with a hit somewhere; the sample as a whole holds those more often. The source made the active and inactive calls. The calls were made as follows: active = growth percent below 10; inactive = the rest.
Possible outcomes: t = active, f = inactive

| moleculeSmiles | classAssignment |
| --- | --- |
| COc1cccc(/C=C/C(=O)c2cc3c(N)c(C(=O)Nc4ccccc4C)sc3nc2C)c1 | f |
| O=C(Nc1ncc(Cc2ccccc2Cl)s1)c1cccs1 | f |
| COC1=CC(c2ccc[nH]2)=N/C1=C\c1[nH]c(C)c(CC(=O)OCc2ccccc2)c1C | t |
| CN1CCN(c2ccc3c(c2)nc(NNC(=O)c2cnccn2)c2cccn23)CC1 | f |
| CC(C)c1ccc(NC(=O)Nc2ccc(NC(=O)c3ccccc3N)cc2)cc1 | f |
| COC(=O)Cc1nc(C#N)c(N(C)C)o1 | f |
| Cc1ccc(N=Nc2c(N)nn(-c3ccccc3)c2N)cc1 | t |
| CNCc1cccc2c1OCCOCCN(C)C(=O)CN(C)S(=O)(=O)c1ccc(cc1)-c1cnc(N)c(n1)C(=O)N2 | t |
| COC(=O)c1c2c(c(C)[n+]([O-])c1C)C(=O)C=CC2=O | f |
| Cc1cc(C)c(-c2c(O)c(Br)c(-c3c(C)cc(C)c(Br)c3C)c(O)c2Br)c(C)c1Br | f |

###

# Test system: SNB-75 CNS
# runDescription: NCI-60 one-dose screen, 48 h
# conditionsUsed: 10 µM unless noted
Compounds without any hit were thinned out: in the full panel of roughly 83,000, 20% have a hit. Calls of active or inactive are those of the source. Rule for the calls: active = growth percent below 10; inactive = the rest.
Possible outcomes: active, inactive

| compound | classAssignment |
| --- | --- |
| Fc1ccc2c(c1)c(-c1nc(-c3c[nH]c4ncccc34)cs1)cn2CCCN1CCOCC1 | inactive |
| Nc1c(C(=O)Nc2ccccn2)sc2nc3c(cc12)C(O)CCC3 (stereo not drawn) | inactive |
| Cc1ccc(O)c(NC(=O)c2ccc(CNc3ccnc(C(F)(F)F)c3)cc2)c1 | inactive |
| COc1ccc(C2CC(c3ccc(Nc4nc(Nc5ccc(F)cc5)nc(Nc5ccc(F)cc5)n4)cc3)=NN2C(C)=O)cc1 (stereo not drawn) | inactive |
| COc1ccc(C2=CN3CC=CCC3CC2=O)cc1 (stereo not drawn) | inactive |
| C#CC#CC#CC#CC#CC#CC#CC#CCC1OCC(COC(=O)O[C@@H](C(=O)O[C@H]2C[C@@]3(O)[C@@H](OC(=O)c4ccccc4)[C@@H]4[C@]5(OC(C)=O)CO[C@@H]5C[C@H](O)[C@@]4(C)C(=O)[C@H](OC(C)=O)C(=C2C)C3(C)C)[C@@H](NC(=O)c2ccccc2)c2ccccc2)O1 (stereo partly drawn) | active |
| CC(C)CCSc1nc(Nc2ccccc2)c(C#N)c(-c2ccccc2)n1 | active |
| CNCc1cccc2c1OCCOCCN(C)C(=O)CN(C)S(=O)(=O)c1ccc(cc1)-c1cnc(N)c(n1)C(=O)N2 | active |
| COc1cc(-c2nc(NC(C)=O)sc2-c2ccnc(NCCNS(=O)(=O)c3ccccc3)n2)ccc1Cl | inactive |
| CCOC(=O)C1=C(C)N=C2SC=C(c3ccccc3)N2[C@H]1c1cn[nH]c1-c1ccc(Cl)cc1 | inactive |
| CCOC(=O)N1CCN(S(=O)(=O)c2oc(-c3ccc(Cl)cc3)nc2C#N)CC1 | inactive |
| CCOC(=O)Cn1c(=O)c2c3ccccc3n(C)c2n2nnc(-c3ccccc3)c12 | inactive |
| COc1cccc(Nc2ccnc3[nH]c4ccc([N+](=O)[O-])cc4c23)c1 | inactive |
| O=C(CN1C(=O)/C(=C/c2ccco2)SC1=S)NCCc1c[nH]c2ccc(F)cc12 | inactive |
| CN1CCN(CCOc2ccc(-c3cnc4c(-c5ccc(C(F)(F)F)cc5)cnn4c3)cc2)CC1 | inactive |
| Cc1ccccc1OCC(O)COc1ccccc1C | inactive |
| N=C(N)c1ccc(-c2ccc(-c3ccc(Cl)cc3Cl)s2)cc1F | inactive |
| O=C(/C=C\c1ccco1)/C=C/c1ccco1 | inactive |

###

# Test system: NCI-H322M lung
# runDescription: NCI-60 one-dose screen, 48 h (100 = growth as untreated, 0 = no growth, -100 = all killed)
# conditionsUsed: 10 µM unless noted
About 83,000 compounds went through this panel and 20% of them were active in at least one assay; those are over-represented in the sample as a whole.
Mark Condition met for reported growth of 90% or greater; mark Condition not met for anything smaller.

| molecule | classAssignment |
| --- | --- |
| O=c1[nH]c(-c2ccc(Cl)cc2)cn1-c1ccc(-n2cc(-c3ccc(Cl)cc3)[nH]c2=O)cc1 | Condition met |
| C=C1C(=O)O[C@H]2[C@H]1CC/C(COC(=O)NCCCCCCCCNC(=O)OC/C1=C/CC[C@@]3(C)O[C@H]3[C@H]3OC(=O)C(=C)[C@@H]3CC1)=C\CC[C@@]1(C)O[C@@H]21 | Condition not met |
| O=C1/C(=C/c2ccc(Br)cc2)COc2ccc(O)c(O)c21 | Condition not met |
| Cc1nn(-c2ccccc2)c(/N=C/N(C)C)c1/C=C/C(=O)c1ccc(Cl)cc1 | Condition met |
| CC(C(=O)O)n1c(O)c(C=Nc2cccnc2)sc1=S (stereo not drawn) | Condition met |
| COc1ccc(Nc2ncccc2NC(=O)c2cn(Cc3cccc(Oc4ccccc4)c3)nn2)cc1OC | Condition not met |
| CN1CCCc2cc(/C=C3/SC(=S)N(CCc4ccc(O)cc4)C3=O)ccc21 | Condition met |
| CCN(CC)CCNC(=O)c1ccc(-c2nc3ccc4[nH]ncc4c3c3c2CCCC3)cc1 | Condition not met |
| CNCc1cccc2c1OCCOCCN(C)C(=O)CN(C)S(=O)(=O)c1ccc(cc1)-c1cnc(N)c(n1)C(=O)N2 | Condition not met |
| CCCCNC1=C(OCC)C(=O)c2ccccc2C1=O | Condition met |
| O=C1N[C@@H]2[C@@H](O)[C@@H](O)[C@H](O)C[C@H]2c2cc3c(c(O)c21)OCCO3 | Condition not met |
| O=S(=O)(c1ccccc1)N1CCCN(c2nc(-c3ccccc3)nc3nc(-c4ccccc4)oc23)CC1 | Condition met |
| CC(C)(CO)N(CCO)CCO | Condition met |
| C/C(=C(/c1ccc(Cl)cc1)c1ccc(OCCCN(C)C)cc1)c1ccc(Cl)cc1 | Condition not met |
| CCOC(=O)Nc1nc2ccc(SCC(C)C)cc2s1 | Condition not met |
| COc1cc(OC)cc(C2C(C#N)=C(N)Oc3c2ccc2ccc(O)cc32)c1 (stereo not drawn) | Condition not met |
| Fc1ccc2c(c1)c(-c1nc(-c3c[nH]c4ncccc34)cs1)cn2CCCN1CCOCC1 | Condition not met |
| C/C(=C(\c1ccc(OCCN2CCCCCC2)cc1)c1ccc(OC(=O)Cc2ccccc2)cc1)c1ccc(Cl)cc1 | Condition not met |
| COc1cc(Nc2ncccc2NC(=O)c2cn(Cc3cccc(Oc4ccccc4)c3)nn2)cc(OC)c1 | Condition not met |
| CCOC(=O)/C=C/c1c(C)[nH]c(=O)[nH]c1=O | Condition met |
| CC(C)CCC[C@@H](C)C1CCC2C3CCC4=C/C(=N/OCCN(C)C)CC[C@]4(C)C3CC[C@@]21C (stereo partly drawn) | Condition not met |
| CN1CCN(CCCOC(=O)c2c3c(n4ccccc24)C(=O)c2ncccc2C3=O)CC1 | Condition not met |
| O=C(N/N=C/c1ccc(Cl)cc1Cl)c1ccc2nc(-c3ccc(Cl)cc3)[nH]c2c1 | Condition not met |
| O=C(/C=C\c1ccco1)/C=C/c1ccco1 | Condition met |
| N#Cc1c(Nc2ccc(F)cc2)n[nH]c1-c1cccs1 | Condition met |
| C#CC#CC#CC#CC#CC#CC#CC#CC[C@H]1OC[C@@H](COC(=O)O[C@@H](C(=O)O[C@H]2C[C@@]3(O)[C@@H](OC(=O)c4ccccc4)[C@@H]4[C@]5(OC(C)=O)CO[C@@H]5C[C@H](O)[C@@]4(C)C(=O)[C@H](OC(C)=O)C(=C2C)C3(C)C)[C@@H](NC(=O)c2ccccc2)c2ccccc2)O1 | Condition not met |
| COc1cc2c(cc1O)[C@@]1(C)[C@H](c3ccccc3Br)OC(=O)N1CC2 | Condition met |
| CC[C@@H](c1ccc2cc(OC)ccc2c1)C(C)(C)C(=O)F | Condition met |
| COc1cc(N2C(=O)[C@H](c3ccccc3)C2c2ccc(SC)cc2)cc(OC)c1OC (stereo partly drawn) | Condition not met |
| Cn1c(/C=C/[N+](=O)[O-])cc2ccccc21 | Condition met |
| Cc1cc(N2CCN(C)CC2)nc(NCc2cc(Nc3ccnc4cc(Cl)ccc34)ccc2F)n1 | Condition not met |
| CC(C)c1ccc(C(=O)Nc2sc3cc(O)ccc3c2C#N)cc1 | Condition not met |
| C=C1C(=O)O[C@H]2[C@H]1CC/C(COC(=O)c1cc3cc(F)ccc3[nH]1)=C\CC[C@@]1(C)O[C@@H]21 | Condition not met |
| Cc1c2ccccc2nc2c1ccc1cccnc12 | Condition met |

Entry source: PubChem BioAssay (NCI)
